system name: Receptor-interacting serine/threonine-protein kinase 1 (Homo sapiens)
assay metric: pIC50
Note on pIC50: it is the negative log10 of concentration, concentration in mol/L.

Completed entries (count: 2):
Short answer for "C#CCN1CCN(CC#Cc2ccc3c(c2)N(C)C(=O)[C@@H](NC(=O)c2cn(Cc4ccccc4)cn2)[C@@H](C)O3)CC1" : pIC50 was 7.99

Short answer for "C[C@H]1Oc2ccc(C#CCCCN(C)CCCC#Cc3ccc4c(c3)N(C)C(=O)[C@@H](NC(=O)c3ncn(Cc5ccccc5)n3)[C@@H](C)O4)cc2N(C)C(=O)[C@H]1NC(=O)c1ncn(Cc2ccccc2)n1" : pIC50 was 7.74

Below: the item to evaluate.
Short answer for "C[C@H]1Oc2ccc(C#Cc3cccc(S(=O)(=O)O)c3)cc2N(C)C(=O)[C@H]1NC(=O)c1n[nH]c(Cc2ccccc2)n1" : pIC50 was 8.03

====

system name: Receptor-interacting serine/threonine-protein kinase 1 (Homo sapiens)
Sequence (Q13546 whole entry): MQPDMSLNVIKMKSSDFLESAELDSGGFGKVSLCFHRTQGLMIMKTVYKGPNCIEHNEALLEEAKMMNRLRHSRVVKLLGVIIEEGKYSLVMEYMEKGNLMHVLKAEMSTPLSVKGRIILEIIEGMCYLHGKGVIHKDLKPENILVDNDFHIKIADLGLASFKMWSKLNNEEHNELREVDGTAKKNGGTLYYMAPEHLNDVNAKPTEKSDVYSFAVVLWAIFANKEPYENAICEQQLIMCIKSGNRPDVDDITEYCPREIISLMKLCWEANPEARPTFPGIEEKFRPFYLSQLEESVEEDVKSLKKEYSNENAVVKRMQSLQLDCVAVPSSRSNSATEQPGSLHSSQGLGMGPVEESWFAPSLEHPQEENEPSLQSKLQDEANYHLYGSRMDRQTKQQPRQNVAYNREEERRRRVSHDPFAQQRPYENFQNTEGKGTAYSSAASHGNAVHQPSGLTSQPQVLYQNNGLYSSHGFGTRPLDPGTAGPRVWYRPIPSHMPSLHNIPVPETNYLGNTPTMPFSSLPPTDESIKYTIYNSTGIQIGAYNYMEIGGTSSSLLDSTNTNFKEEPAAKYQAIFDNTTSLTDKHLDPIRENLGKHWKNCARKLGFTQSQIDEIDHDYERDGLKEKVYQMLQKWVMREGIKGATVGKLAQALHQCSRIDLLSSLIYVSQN
assay metric: IC50 (nM)
The answer is to be given in nM; state only the numeric part.

Completed entries (count: 8):
Short answer for C#CCOCCOCCOCCOCCOCC#Cc1ccc2c(c1)N(C)C(=O)[C@@H](NC(=O)c1ncn(Cc3ccccc3)n1)[C@@H](C)O2 [US20240270732, Compound I-84-2] : IC50 was 8.03

Short answer for C[C@H]1Oc2ccc(C#CCCO)cc2N(C)C(=O)[C@H]1NC(=O)c1n[nH]c(Cc2ccccc2)n1 [US20240270732, Compound I-105] : IC50 was 4.85

Short answer for C#CCOCCOCCOCCOCCOCC#Cc1ccc2c(c1)N(C)C(=O)[C@@H](NC(=O)c1n[nH]c(Cc3ccccc3)n1)CO2 [US20240270732, Compound I-82-2] : IC50 was 7.15

Short answer for C[C@H]1Oc2ccc(C#CCN3CCN(CC#CC#CCN4CCN(CC#Cc5ccc6c(c5)N(C)C(=O)[C@@H](NC(=O)c5ncn(Cc7ccccc7)n5)[C@@H](C)O6)CC4)CC3)cc2N(C)C(=O)[C@H]1NC(=O)c1ncn(Cc2ccccc2)n1 [US20240270732, Compound I-93] : IC50 was 5.73

Short answer for C[C@H]1Oc2ccc(C#CCN3CCN(CC#Cc4ccc5c(c4)N(C)C(=O)[C@@H](NC(=O)c4nnn(Cc6ccccc6)n4)[C@@H](C)O5)CC3)cc2N(C)C(=O)[C@H]1NC(=O)c1nnn(Cc2ccccc2)n1 [US20240270732, Compound I-56] : IC50 was 7.44

Short answer for C[C@@H]1Oc2ccc(C#CCN3CCN(CC#Cc4ccc5c(c4)N(C)C(=O)[C@@H](NC(=O)c4n[nH]c(Cc6ccccc6)n4)[C@H](C)O5)CC3)cc2N(C)C(=O)[C@H]1NC(=O)c1n[nH]c(Cc2ccccc2)n1 [US20240270732, Compound I-19] : IC50 was 62.3

Short answer for C[C@H]1Oc2ccc(CCCN3CCN(CCCc4ccc5c(c4)N(C)C(=O)[C@@H](NC(=O)c4ncn(Cc6ccccc6)n4)[C@@H](C)O5)CC3)cc2N(C)C(=O)[C@H]1NC(=O)c1ncn(Cc2ccccc2)n1 [US20240270732, Compound I-122] : IC50 was 3.18

Short answer for CN1C(=O)[C@@H](NC(=O)c2ncn(Cc3ccccc3)n2)COc2ccc(C#CCN3CCN(CC#Cc4ccc5c(c4)N(C)C(=O)[C@@H](NC(=O)c4ncn(Cc6ccccc6)n4)CO5)CC3)cc21 [US20240270732, Compound I-32] : IC50 was 3.08

Below: the item to evaluate.
Short answer for C[C@H]1Oc2ccc(C#CCN3CCN(CC#Cc4ccc5c(c4)N(C)C(=O)[C@@H](NC(=O)c4n[nH]c(Cc6ccccc6)n4)CO5)CC3)cc2N(C)C(=O)[C@H]1NC(=O)c1n[nH]c(Cc2ccccc2)n1 [US20240270732, Compound I-3] : IC50 was 7.22

====

These records show IC50 for Receptor-interacting serine/threonine-protein kinase 1 (Homo sapiens).
The answer is to be given in nM; state only the numeric part.

Completed entries (count: 6):
Short answer for "C[C@H]1Oc2ccc(C#CCN3CCN(CC#Cc4ccc5c(c4)N(C)C(=O)[C@@H](NC(=O)c4cn(Cc6ccccc6)cn4)CO5)CC3)cc2N(C)C(=O)[C@H]1NC(=O)c1ncn(Cc2ccccc2)n1" : IC50 was 4.59

Short answer for "C[C@H]1Oc2ccc(C#CCCCCC#Cc3ccc4c(c3)N(C)C(=O)[C@@H](NC(=O)c3n[nH]c(Cc5ccccc5)n3)[C@@H](C)O4)cc2N(C)C(=O)[C@H]1NC(=O)c1n[nH]c(Cc2ccccc2)n1" : IC50 was 10.5

Short answer for "C#CCN1CCN(CC#Cc2ccc3c(c2)N(C)C(=O)[C@@H](NC(=O)c2nnn(Cc4ccccc4)n2)CO3)CC1" : IC50 was 8.09

Short answer for "CN(CCCC#Cc1ccc2c(c1)N(C)C(=O)[C@@H](NC(=O)c1n[nH]c(Cc3ccccc3)n1)CO2)CCCC#Cc1ccc2c(c1)N(C)C(=O)[C@@H](NC(=O)c1n[nH]c(Cc3ccccc3)n1)CO2" : IC50 was 18.5

Short answer for "C#CCN1CCN(CC#Cc2ccc3c(c2)N(C)C(=O)[C@@H](NC(=O)c2cn(Cc4ccccc4)cn2)[C@H](C)O3)CC1" : IC50 was 59.2

Short answer for "C[C@H]1Oc2ccc(C#CCN3CCN(CC#Cc4ccc5c(c4)N(C)C(=O)[C@@H](NC(=O)c4nnn(Cc6ccccc6)n4)CO5)CC3)cc2N(C)C(=O)[C@H]1NC(=O)c1ncn(Cc2ccccc2)n1" : IC50 was 3.73

---
Short answer for "COCCOCCOCCOCCOCC#Cc1ccc2c(c1)N(C)C(=O)[C@@H](NC(=O)c1n[nH]c(Cc3ccccc3)n1)[C@@H](C)O2" : IC50 was 2.39

Short answer for "C#CCN1CCN(CC#Cc2ccc3c(c2)N(C)C(=O)[C@@H](NC(=O)c2noc(Cc4ccccc4)n2)[C@@H](C)O3)CC1" : IC50 was 15.9

Short answer for "C#CCN1CCN(CC#Cc2ccc3c(c2)N(C)C(=O)[C@@H](NC(=O)c2ncn(Cc4cccnc4)n2)[C@@H](C)O3)CC1" : IC50 was 19.1

Short answer for "C[C@H]1Oc2ccc(C#CCCO)cc2N(C)C(=O)[C@H]1NC(=O)c1ncn(Cc2ccccc2)n1" : IC50 was 6.53

====

system name: Receptor-interacting serine/threonine-protein kinase 1 (Homo sapiens)
Sequence (Q13546 whole entry): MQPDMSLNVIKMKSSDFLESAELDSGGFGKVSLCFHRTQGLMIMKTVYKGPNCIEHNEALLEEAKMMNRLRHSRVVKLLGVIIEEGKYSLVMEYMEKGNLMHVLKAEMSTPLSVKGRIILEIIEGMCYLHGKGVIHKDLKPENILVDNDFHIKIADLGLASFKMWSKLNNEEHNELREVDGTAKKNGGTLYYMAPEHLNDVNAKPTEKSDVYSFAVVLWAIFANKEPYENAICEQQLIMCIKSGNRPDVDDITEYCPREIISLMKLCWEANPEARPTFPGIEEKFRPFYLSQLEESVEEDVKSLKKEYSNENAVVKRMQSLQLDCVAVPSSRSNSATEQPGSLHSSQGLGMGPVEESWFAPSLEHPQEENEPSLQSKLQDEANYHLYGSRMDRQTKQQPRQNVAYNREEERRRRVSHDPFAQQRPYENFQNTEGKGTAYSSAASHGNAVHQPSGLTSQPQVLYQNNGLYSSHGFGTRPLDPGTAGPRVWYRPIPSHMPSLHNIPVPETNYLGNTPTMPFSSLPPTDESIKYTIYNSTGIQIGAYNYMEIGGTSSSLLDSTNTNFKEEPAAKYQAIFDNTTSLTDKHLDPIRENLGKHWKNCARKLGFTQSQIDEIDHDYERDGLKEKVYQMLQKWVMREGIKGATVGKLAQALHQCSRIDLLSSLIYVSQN
Catalogue of IC50 values

Completed entries (count: 2):
Item: "C[C@H]1Oc2ccc(C#CCN3CCN(CC#Cc4ccc5c(c4)N(C)C(=O)[C@@H](NC(=O)c4cn(Cc6ccccc6)cn4)[C@@H](C)O5)CC3)cc2N(C)C(=O)[C@H]1NC(=O)c1cn(Cc2ccccc2)cn1" | System: Receptor-interacting serine/threonine-protein kinase 1 (Homo sapiens) | IC50: 0.00991 µM

Item: "CN(CCCC#Cc1ccc2c(c1)N(C)C(=O)[C@@H](NC(=O)c1ncn(Cc3ccccc3)n1)CO2)CCCC#Cc1ccc2c(c1)N(C)C(=O)[C@@H](NC(=O)c1ncn(Cc3ccccc3)n1)CO2" | System: Receptor-interacting serine/threonine-protein kinase 1 (Homo sapiens) | IC50: 0.017 µM

Below: the item to evaluate.
Item: "C[C@H]1Oc2ccc(C#CCN3CCN(CC#Cc4ccc5c(c4)N(C)C(=O)[C@@H](NC(=O)c4nnn(Cc6ccccc6)n4)[C@@H](C)O5)CC3)cc2N(C)C(=O)[C@H]1NC(=O)c1n[nH]c(Cc2ccccc2)n1" | System: Receptor-interacting serine/threonine-protein kinase 1 (Homo sapiens) | IC50: 0.0112 µM

Origin of measurements: BindingDB's records for patent US20240270732
